Assay Target: human BRD4 bromodomain II (Homo sapiens)
Construct: human BRD4 bromodomain II [based on Genbank NM_058243, residues 349-460]; host or cells: E. coli
Protocol Details: Bromodomain binding assay (AlphaScreen), BRD4 BDII
Conditions Used: AlphaScreen assay, Table C2; read-out: BRD4 BDII IC50
Field: IC50. Provide a value for each of the compounds that follow.

Example results:
According to the records, this compound CN1CCN(c2ccc(-c3cc(-c4ccccc4)cc(-c4ccnc(N5CCNCC5)c4)c3O)cc2Cl)C1=O [Example 318] displays IC50 of > 100 nM

According to the records, this compound CN1CCN(c2ccc(-c3cc(F)cc(-c4cc(N5CCNCC5)c5cc[nH]c5c4)c3O)cc2Cl)C1=O [Example 460] displays IC50 of 1 to 10 nM

According to the records, this compound Cn1ccn(-c2ccc(-c3cc(F)cc(-c4ccnc(N5CCNCC5=O)c4)c3O)cc2Cl)c1=O [Example 463] displays IC50 of 0.01 to 1 nM

Please supply IC50 for each of the following items, keeping them in order.
1. COc1ncc(-c2cc(F)cc(-c3ccc(-n4ccn(C)c4=O)c(Cl)c3)c2O)cc1N1CC(C)(O)C1 [Example 834]
2. CC(C)N1CCN(c2cncc(-c3cc(F)cc(-c4ccc(-n5ccn(C)c5=O)c(Cl)c4)c3O)c2)CC1 [Example 663]

Reply:
1: 1 to 10 nM; 2: 0.01 to 1 nM

Please supply IC50 for each of the following items, keeping them in order.
1. COc1cc(-c2cc(F)cc(-c3ccc(-n4ccn(C)c4=O)c(Cl)c3)c2O)cc(N2CCN(C(C)(C)C)CC2)n1 [Example 732]
2. C[C@@H]1CN(c2cc(-c3cc(F)cc(-c4ccc(-n5ccn(C)c5=O)c(Cl)c4)c3O)cnn2)CCN1 [Example 650]

Reply:
["1 to 10 nM", "0.01 to 1 nM"]
